value.type: melting point

Example entries begin here.
COc1ccc(C(=O)Nc2ccccc2)cc1Nc1ccccc1 [Example 28] | 194 to 195 °C
COc1ccc(C(=O)Nc2ccccc2)cc1Nc1ccc(C)cc1 [Example 34] | 187 to 188 °C
COc1ccc(C(=O)Nc2ccccc2)cc1NS(=O)(=O)c1ccccc1 [Example 120] | 190 to 194 °C
COc1ccc(C(=S)Nc2ccccc2)cc1NS(=O)(=O)c1cc(Cl)cc(Cl)c1 [Example 208] | 206 to 208 °C

Please indicate melting point recorded for COc1ccc(C(=O)Nc2ccc(F)c(F)c2)cc1NC(=S)Nc1cc(Cl)cc(Cl)c1 [Example 107] 180 to 183 °C

Please indicate melting point recorded for COc1ccc(C(=O)Nc2ccccc2)cc1NS(=O)(=O)c1ccc(C)cc1 [Example 124] 200 to 202 °C

Please indicate melting point recorded for COc1ccc(C(=O)Nc2ccccc2)cc1NS(=O)(=O)Cc1ccccc1 [Example 135] 216 °C

====

- system.name: rabbit reticulocyte 15-LO (Oryctolagus cuniculus, UniProt P12530)
- Construct: Fifteen-lipoxygenase was obtained from phenylhydrazine-treated rabbits and purified per the method of Rapoport; from tissue; host or cells: reticulocytes of phenylhydrazine-treated rabbits
- protocol.summary: Rabbit Reticulocyte 15-LO Assay (h15LO)
- Type: biochemical
- recorded.conditions: Table 2; concentration not given
value.type: h15LO, value given as bare % (%)
# output: bare number, implied unit %

Example entries begin here.
COc1ccc(C(=O)Nc2ccc(F)cc2)cc1NC(=S)Nc1cccc(C(=O)O)c1 [Example 167] | 96.22
COc1ccc(C(=O)Nc2ccccc2)cc1NCc1ccc(C#N)cc1 [Example 233] | 73.46
COc1ccc(C(=O)Nc2ccc(F)c(F)c2)cc1NS(=O)(=O)c1ccc(C#N)cc1 [Example 187] | 98.38
COc1ccc(C(=O)Nc2ccccc2)cc1NC(=O)CC(=O)OCc1ccccc1 [Example 252] | 43

Please indicate h15LO, value given as bare % recorded for COc1ccc(NC(=O)c2ccc(F)c(F)c2)cc1NS(=O)(=O)c1cccc([N+](=O)[O-])c1 [Example 203] 92.01

====

- system.name: rabbit reticulocyte 15-LO (Oryctolagus cuniculus, UniProt P12530)
- Construct: Fifteen-lipoxygenase was obtained from phenylhydrazine-treated rabbits and purified per the method of Rapoport; from tissue; host or cells: reticulocytes of phenylhydrazine-treated rabbits
- Sequence (P12530 1-663): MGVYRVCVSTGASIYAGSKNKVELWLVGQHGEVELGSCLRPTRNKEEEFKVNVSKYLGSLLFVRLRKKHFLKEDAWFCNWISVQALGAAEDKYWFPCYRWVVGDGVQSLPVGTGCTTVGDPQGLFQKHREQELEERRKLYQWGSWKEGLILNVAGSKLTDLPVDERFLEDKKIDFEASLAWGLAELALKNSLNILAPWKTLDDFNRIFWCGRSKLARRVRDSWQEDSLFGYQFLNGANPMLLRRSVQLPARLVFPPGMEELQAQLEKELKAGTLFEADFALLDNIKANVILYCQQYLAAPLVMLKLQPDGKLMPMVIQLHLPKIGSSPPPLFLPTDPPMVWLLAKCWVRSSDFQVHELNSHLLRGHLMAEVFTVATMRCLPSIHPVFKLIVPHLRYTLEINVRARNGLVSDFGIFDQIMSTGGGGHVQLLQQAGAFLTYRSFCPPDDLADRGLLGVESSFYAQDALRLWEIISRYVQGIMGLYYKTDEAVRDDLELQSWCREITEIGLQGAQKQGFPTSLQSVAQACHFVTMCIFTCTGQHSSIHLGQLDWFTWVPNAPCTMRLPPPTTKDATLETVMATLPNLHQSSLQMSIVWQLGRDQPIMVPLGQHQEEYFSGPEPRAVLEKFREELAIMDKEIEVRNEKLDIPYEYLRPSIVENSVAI
- protocol.summary: Rabbit Reticulocyte 15-LO Assay (h15LO)
- Format: biochemical
- recorded.conditions: Table 2; 2U rabbit reticulocyte 15-LO, 174 μM linoleic acid, 15 minutes at 4° C.
- Procedure: Rabbit Reticulocyte 15-LO Assay (h15LO) The present 15-LO assay takes advantage of the ability of 15-LO to oxidize the fatty acid linoleic acid to the hydroperoxy fatty acid 13-(S)HPODE, resulting in the formation of a conjugated diene. The 15-LO inhibitors are incubated with 15-LO enzyme in the presence of linoleic acid substrate. […] 13-HPODE is quantitated by comparing peak areas of individual samples with those from a standard curve generated using authentic 13-HODE. […]
Rule: IC50 below 20 nM gives Met, anything at or above gives Not met.

COc1ccc(C(=O)Nc2ccccc2)cc1NC(=S)Nc1cccc(Cl)c1 | Met
COc1ccc(C(=O)Nc2ccccc2)cc1Nc1ccc(F)cc1 | Not met

Does COc1ccc(C(=O)Nc2ccccc2)cc1NC(=S)Nc1c(F)c(F)cc(F)c1F have IC50 strictly under 20 nM? Not met

Does COc1ccc(NC(=O)c2ccc(Cl)c(Cl)c2)cc1NC(=S)Nc1cc(Cl)cc(Cl)c1 have IC50 strictly under 20 nM? Not met

Does COc1ccc(C(=O)Nc2ccc(C)c(Cl)c2)cc1NC(=S)Nc1cc(Cl)cc(Cl)c1 have IC50 strictly under 20 nM? Met

====

Some compounds, each annotated with its measured IC50.
- system.name: rabbit reticulocyte 15-LO (Oryctolagus cuniculus, UniProt P12530)
- Construct: Fifteen-lipoxygenase was obtained from phenylhydrazine-treated rabbits and purified per the method of Rapoport; from tissue; host or cells: reticulocytes of phenylhydrazine-treated rabbits
- protocol.summary: Rabbit Reticulocyte 15-LO Assay (h15LO)
- Format: biochemical
- recorded.conditions: Table 2; 2U rabbit reticulocyte 15-LO, 174 μM linoleic acid, 15 minutes at 4° C.
- Procedure: Rabbit Reticulocyte 15-LO Assay (h15LO) The present 15-LO assay takes advantage of the ability of 15-LO to oxidize the fatty acid linoleic acid to the hydroperoxy fatty acid 13-(S)HPODE, resulting in the formation of a conjugated diene. The 15-LO inhibitors are incubated with 15-LO enzyme in the presence of linoleic acid substrate. […] 13-HPODE is quantitated by comparing peak areas of individual samples with those from a standard curve generated using authentic 13-HODE. […]
# output: bare number, implied unit nM

Example entries begin here.
COc1ccc(C(=O)Nc2ccccc2)cc1OC(=O)Oc1ccccc1 [Example 144] | 1190
COc1ccc(C(=O)Nc2ccccc2)cc1NC(=S)Nc1ccc(S(=O)(=O)O)cc1 [Example 82] | 124
COc1ccc(C(=O)Nc2ccccc2)cc1NS(=O)(=O)c1ccc(Cl)c(Cl)c1 [Example 136] | 48
COc1ccc(NC(=O)c2ccc(F)c(F)c2)cc1N [Example 150] | 205
COc1ccc(C(=O)Nc2ccccc2)cc1CNC(=S)Nc1cc(Cl)cc(Cl)c1 [Example 247] | 40

Please indicate IC50 recorded for COc1ccc(NC(=O)c2ccccc2)cc1NC(=S)Nc1cc(Cl)cc(Cl)c1 [Example 87] 102

Please indicate IC50 recorded for COc1ccc(C(=O)Nc2ccccc2)cc1Nc1ccc(C2=NC(C)(C)CO2)cc1 [Example 44] 25

Please indicate IC50 recorded for COc1ccc(C(=O)Nc2ccccc2)cc1NC(=S)Nc1ccc(Cl)c([N+](=O)[O-])c1 [Example 77] 11

Please indicate IC50 recorded for COc1ccc(C(=O)Nc2ccccc2)cc1NCc1cccc2ccccc12 [Example 217] 129

====

- system.name: rabbit reticulocyte 15-LO (Oryctolagus cuniculus, UniProt P12530)
- Construct: Fifteen-lipoxygenase was obtained from phenylhydrazine-treated rabbits and purified per the method of Rapoport; from tissue; host or cells: reticulocytes of phenylhydrazine-treated rabbits
- Sequence (P12530 1-663): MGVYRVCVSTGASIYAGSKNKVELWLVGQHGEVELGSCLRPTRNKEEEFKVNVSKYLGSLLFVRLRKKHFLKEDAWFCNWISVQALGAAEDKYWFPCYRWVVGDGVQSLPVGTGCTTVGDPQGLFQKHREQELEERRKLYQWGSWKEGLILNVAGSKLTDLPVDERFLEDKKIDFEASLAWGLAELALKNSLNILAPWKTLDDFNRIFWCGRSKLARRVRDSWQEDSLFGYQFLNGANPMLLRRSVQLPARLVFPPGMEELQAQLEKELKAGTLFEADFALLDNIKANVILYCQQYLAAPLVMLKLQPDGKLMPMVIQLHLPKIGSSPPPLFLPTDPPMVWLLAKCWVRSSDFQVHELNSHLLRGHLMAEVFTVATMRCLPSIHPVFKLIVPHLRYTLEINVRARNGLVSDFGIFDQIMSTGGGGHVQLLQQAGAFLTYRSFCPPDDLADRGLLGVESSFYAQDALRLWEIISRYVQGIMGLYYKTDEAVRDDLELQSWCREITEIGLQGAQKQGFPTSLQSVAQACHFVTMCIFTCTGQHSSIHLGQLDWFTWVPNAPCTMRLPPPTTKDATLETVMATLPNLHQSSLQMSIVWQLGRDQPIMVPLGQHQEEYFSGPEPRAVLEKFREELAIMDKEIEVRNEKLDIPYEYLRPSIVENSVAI
- protocol.summary: Rabbit Reticulocyte 15-LO Assay (h15LO)
- Format: biochemical
- recorded.conditions: Table 2; 2U rabbit reticulocyte 15-LO, 174 μM linoleic acid, 15 minutes at 4° C.
- Method: Rabbit Reticulocyte 15-LO Assay (h15LO) The present 15-LO assay takes advantage of the ability of 15-LO to oxidize the fatty acid linoleic acid to the hydroperoxy fatty acid 13-(S)HPODE, resulting in the formation of a conjugated diene. The 15-LO inhibitors are incubated with 15-LO enzyme in the presence of linoleic acid substrate. […] 13-HPODE is quantitated by comparing peak areas of individual samples with those from a standard curve generated using authentic 13-HODE. […]
Each record gets a class by IC50: A: < 70 nM; B: ≥ 70 nM and < 300 nM; C: ≥ 300 nM

COc1ccc(C(=O)Nc2ccccc2)cc1NS(=O)(=O)c1cc(Cl)cc(Cl)c1 [Example 118] | A
COc1ccc(C(=O)Nc2ccccc2)cc1NCc1cccc([N+](=O)[O-])c1 [Example 215] | B
COc1ccc(C(=O)Nc2ccccc2)cc1NC(=S)Nc1ccc(OC)c(OC)c1 [Example 72] | A
COc1ccc(NC(=O)c2ccc(Cl)c(Cl)c2)cc1NCc1cccc(F)c1 [Example 244] | B
COc1ccc(C(=O)Nc2ccc(Cl)c(Cl)c2)cc1NS(C)(=O)=O [Example 119] | B
COc1ccc(C(=O)Nc2cccnc2)cc1NC(=S)Nc1cccc(C(=O)O)c1 [Example 112] | A

Field: class (IC50) — entry: COc1ccc(C(=O)Nc2ccccc2)cc1NCc1ccc2c(c1)OCO2 [Example 266] B

Field: class (IC50) — entry: COc1ccc(S(=O)(=O)Nc2cc(NC(=O)c3ccc(Cl)c(Cl)c3)ccc2OC)cc1 [Example 196] A

Field: class (IC50) — entry: COc1ccc(C(=O)Nc2ccccc2)cc1NS(=O)(=O)c1sc(NC(C)=O)nc1C [Example 131] C

FYI, the data here is from patent US6528528B2.
